# Tested on: NEK11
# experimental-conditions: concentration: 1 μM, replicates: in singlicate; n = 1;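 note: KINOMEscan kinase panel screen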
endpoint: %Inh (%)
Write the value in % as a bare number.

> print(dat)
                                   compound  units  numeric.readout
1  Cc1ccc(C)c(NC(=O)NC2CCN(c3ccnc(Nc4ccc(F)cc4)n3)C2)c1 (stereo not drawn)      %               15
2        Nc1ncnc2c1nc(-c1ccccc1)n2-c1ccccc1      %               30
3      CC(C)(C)c1ccc2nccc(Nc3cccc(O)c3)c2c1      %               22
4                  c1ccc(-c2cnc3nccnn23)cc1      %                0
5  c1ccc(Oc2ccc(Nc3ccnc4cc(-c5ccc(CNCCN6CCOCC6)o5)ccc34)cc2)nc1      %               45

Query block: Any idea what its %Inh is? The compound is O=C(Nc1ccccc1F)NC1CCN(c2ccnc(Nc3ccc(F)cc3)n2)CC1
Result block: 7

Query block: Any idea what its %Inh is? The compound is CNC(=O)c1ccccc1Nc1nc(Nc2ccc(N3CCOCC3)cc2)ncc1Cl.Cl
Result block: 85

Query block: Any idea what its %Inh is? The compound is CN1CCN(Cc2cccc(-c3ccc4c(Nc5ccc(Oc6ccccc6)cc5)ccnc4c3)c2)CC1
Result block: 28

Query block: Any idea what its %Inh is? The compound is O=C(Nc1n[nH]c2cc(-c3ccoc3)ccc12)C1CC1
Result block: 4

Query block: Any idea what its %Inh is? The compound is COc1cc2c(cc1OCCN1CCNCC1)ncc1c3ccc(C#N)cc3[nH]c21
Result block: 7

###

Entries and their %Inh
# Tested on: RIPK1
# experimental-conditions: concentration: 1 μM, replicates: in singlicate; n = 1
Write the value in % as a bare number.

> print(dat)
                                   molecule  numeric.readout
1  Cl.c1ccc(-c2ccc3c(Nc4ccc5[nH]ccc5c4)ccnc3c2)nc1 [GW440138]                0
2  CN1CCN(Cc2cccc(-c3ccc4c(Nc5ccc(Oc6ccccc6)cc5)ccnc4c3)c2)CC1 [GW578342]                0

Query block: Any idea what its %Inh is? The molecule is FC(F)(F)c1ccc(/C=C/c2cncnc2Nc2ccc3[nH]c(Cc4ccccc4)nc3c2)cc1 [GW709199]
Result block: 11

Query block: Any idea what its %Inh is? The molecule is COc1cc(Nc2nccc(-c3c(-c4cccc(NC(=O)c5c(F)cccc5F)c4)nn4ccccc34)n2)cc(OC)c1OC [GSK323521]
Result block: 93.9

###

Entries and their %Inh
# System: AKT3
# experimental-conditions: concentration: 1 μM, replicates: in singlicate; n = 1
Units required after the number.

Would you please look over these solved cases?
> print(dat)
                                   compound  endpoint  result
1  O=C(Nc1cccc(-c2nn3ccccc3c2-c2ccnc(Nc3cccc(C(F)(F)F)c3)n2)c1)c1c(F)cccc1F      %Inh      2%
2  Cc1cccc(Nc2nc(N[C@H]3CCNC3)ncc2C(N)=O)c1.Cl      %Inh      0%
3  COc1cc(Nc2nccc(-c3c(-c4cccc(NC(=O)c5c(F)cccc5F)c4)nn4ncccc34)n2)cc(OC)c1OC      %Inh     17%
4  O=C(Nc1cccc(Oc2ccc3nc(NC(=O)C4CC4)cn3n2)c1)c1ccccc1C(F)(F)F      %Inh      0%
5  COc1cc(Nc2nccc(N3CCC(NC(=O)c4cc5ccccc5s4)C3)n2)cc(OC)c1OC (stereo not shown)      %Inh      0%

Query block: Write down the reported %Inh of Cl.c1ccc(-c2ccc3c(Nc4ccc5[nH]ncc5c4)ccnc3c2)nc1 , test system: AKT3.
Result block: 0%

Query block: Write down the reported %Inh of Cn1cc(-c2ccc3c(c2)CCN3C(=O)Cc2cccc(F)c2)c2c(N)ncnc21 , test system: AKT3.
Result block: 0%

Query block: Write down the reported %Inh of COc1cc(Nc2ncc3c(C)nc(-c4cc5ccccc5[nH]4)n3n2)cc(OC)c1OC , test system: AKT3.
Result block: 0%

###

# Tested on: MINK
# Construct: gene MINK1
# experimental-conditions: concentration: 1 μM, replicates: in singlicate; n = 1
Entries and their %Inh
Write the value in % as a bare number.

Would you please look over these solved cases?
> print(dat)
                               given.smiles  numeric.readout
1  Cc1ccc(C(=O)Nc2ccc(Nc3ccnc4cc(-c5nccs5)ccc34)cc2O)cc1.Cl               47
2  CN(c1ccc(NC(=O)Nc2cc(C(F)(F)F)ccc2F)cc1)c1ccnc(Nc2ccc(S(N)(=O)=O)cc2)n1               76
3  CCn1c(-c2nonc2N)nc2c(C#CC(C)(C)O)nc(OC[C@H](N)c3ccccc3)cc21                5

// switching to the query molecule
Query block: Any idea what its %Inh is? The molecule is O=C(Nc1n[nH]c2cc(-c3ccoc3)ccc12)C1CC1
Result block: 44

###

# Tested on: BRSK1
# experimental-conditions: concentration: 1 μM, replicates: in singlicate; n = 1
Entries and their %Inh
Write the value in % as a bare number.

> print(dat)
                               given.smiles  endpoint  numeric.readout
1  COc1cccc(C(=O)Nc2cccc(Oc3ccc4nc(NC(=O)C5CC5)cn4n3)c2)c1      %Inh                4
2  COc1cc2c(cc1OCCN1CCNCC1)ncc1c3ccc(C#N)cc3[nH]c21      %Inh               25
3  CCn1c(-c2nonc2N)nc2c(C#CC(C)(C)O)ncc(OCCCCN)c21.O=C(O)C(F)(F)F.O=C(O)C(F)(F)F      %Inh                0

// switching to the query compound
Query block: Write down the reported %Inh of C[C@@H](Oc1cc(-n2cnc3cc(-c4ccnc(NCCS(C)(=O)=O)c4)ccc32)sc1C(N)=O)c1ccccc1Cl , test system: BRSK1.
Result block: 55

###

# Test system: ROS1
# experimental-conditions: concentration: 1 μM, replicates: in singlicate; n = 1
endpoint: %Inh (%)
Write the value in % as a bare number.

Would you please look over these solved cases?
> print(dat)
                                   compound  endpoint  numeric.readout
1  Cc1ccc(C(=O)Nc2ccc(Nc3ccnc4cc(-c5nccs5)ccc34)cc2O)cc1.Cl [GW494702]      %Inh                0
2  O=c1[nH]cc(-c2ccc(N3CCOCC3)cc2)c2sc(-c3cn[nH]c3)cc12 [GSK2276055]      %Inh                0
3  Cn1cc(-c2ccc3c(c2)CCN3C(=O)Cc2cccc(Cl)c2)c2c(N)ncnc21 [GSK2606590]      %Inh               31
4  c1ccc(Oc2ccc(Nc3ccnc4cc(-c5ccc(CNCCN6CCOCC6)o5)ccc34)cc2)nc1 [GW567145]      %Inh                0
5  c1ccc(-c2n[nH]cc2Nc2ccnc3ccccc23)nc1 [GW694077]      %Inh                9
6  COc1ccc(CNC(=O)NC2CCN(c3ccnc(Nc4ccc(F)cc4)n3)CC2)cc1 [GSK1379788]      %Inh               26
7  COc1cc2c(cc1OCCN1CCNCC1)ncc1c3ccc(C#N)cc3[nH]c21      %Inh                0
8  Nc1n[nH]c2cnc(-c3ccccc3)cc12 [SB-642124]      %Inh                0

Query block: Any idea what its %Inh is? The compound is COc1cccc(NC(=O)NC2CCN(c3ccnc(Nc4cc(OC)c(OC)c(OC)c4)n3)C2)c1 (centres unmarked) [GSK1379763]
Result block: 23

Query block: Any idea what its %Inh is? The compound is CCn1c(-c2nonc2N)nc2c(C#CC(C)(C)O)nc(OC[C@H](N)c3ccccc3)cc21 [GSK943949]
Result block: 2

Query block: Any idea what its %Inh is? The compound is FC(F)(F)c1ccc(/C=C/c2cncnc2Nc2ccc3[nH]c(Cc4ccccc4)nc3c2)cc1 [GW709199]
Result block: 0

Query block: Any idea what its %Inh is? The compound is COCCOCCOc1cc2ncc3c4ccc(C#N)cc4[nH]c3c2cc1OC
Result block: 51

Query block: Any idea what its %Inh is? The compound is CN(C)S(=O)(=O)c1cc(-c2ccc3nccc(-c4cccc(S(N)(=O)=O)c4)c3c2)cnc1N [GSK1669921]
Result block: 0

Query block: Any idea what its %Inh is? The compound is CC(=O)N1CCN(c2ccc(Nc3nccc(-c4sc(C(C)C)nc4-c4cccc(NS(=O)(=O)c5cccc(Cl)c5)c4)n3)cn2)CC1 [GSK1660437]
Result block: 21

Query block: Any idea what its %Inh is? The compound is COc1cccc(C2=C(Nc3ccc(Cl)c(C(=O)O)c3)C(=O)NC2=O)c1 [SB-390769]
Result block: 0

Query block: Any idea what its %Inh is? The compound is Oc1cc(Nc2ccnc3cc(I)ccc23)ccc1F [GW552771]
Result block: 0

Query block: Any idea what its %Inh is? The compound is CNC(=O)c1ccccc1Nc1nc(Nc2ccc(N3CCOCC3)cc2)ncc1Cl.Cl [GSK1576028]
Result block: 90.9

// data source = paper PMC5540273
